- target_desc: IKKε (Homo sapiens, UniProt Q14164)
- Construct: TBK1 and IKKε were expressed and purified as full length recombinant proteins
- Sequence (Q14164 whole entry): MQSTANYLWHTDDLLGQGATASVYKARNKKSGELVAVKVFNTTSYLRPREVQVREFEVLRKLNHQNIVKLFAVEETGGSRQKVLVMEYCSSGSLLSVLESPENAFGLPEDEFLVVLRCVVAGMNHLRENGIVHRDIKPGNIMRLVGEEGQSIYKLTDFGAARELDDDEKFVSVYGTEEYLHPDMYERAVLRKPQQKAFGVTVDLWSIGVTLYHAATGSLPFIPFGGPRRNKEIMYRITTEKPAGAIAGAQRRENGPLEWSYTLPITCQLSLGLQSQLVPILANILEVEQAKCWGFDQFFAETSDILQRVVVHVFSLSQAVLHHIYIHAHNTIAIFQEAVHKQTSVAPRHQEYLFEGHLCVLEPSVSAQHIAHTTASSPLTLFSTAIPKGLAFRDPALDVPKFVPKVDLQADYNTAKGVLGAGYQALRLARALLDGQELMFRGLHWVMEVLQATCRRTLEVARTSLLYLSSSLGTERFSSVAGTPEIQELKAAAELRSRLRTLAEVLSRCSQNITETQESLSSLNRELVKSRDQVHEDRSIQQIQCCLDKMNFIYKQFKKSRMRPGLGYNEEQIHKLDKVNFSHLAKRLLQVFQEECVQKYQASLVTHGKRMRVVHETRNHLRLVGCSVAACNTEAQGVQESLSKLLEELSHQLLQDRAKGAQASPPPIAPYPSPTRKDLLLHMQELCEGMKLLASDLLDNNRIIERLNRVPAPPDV
- test_details: TR-FRET enzymatic activity assay, IKKε; also: full length recombinant IKKε at 0.3 nM
- measurement_setup: read-out: IKKϵ IC50
- Method: Biological Assay for TBK1 and IKKε: Enzymatic activity of IKKε and TBK1 was measured using a homogeneous time resolved fluorescence resonance energy transfer (TR-FRET) assay that monitors enzyme dependent phosphorylation of a biotinylated serine/threonine peptide substrate. […] TBK1 and IKKε were expressed and purified as full length recombinant proteins. Detection reagents for the assay were purchased from Cisbio. […]
Lab note: anything with IC50 below 200 nM is marked yes (1); values at 200 nM or higher are marked no (0).

INPUT: I'd appreciate it if you could check whether C[C@@H]1CCCN1c1ccc(-c2ccnc(NC(=O)C3CC3)c2)cc1C#N has IC50 smaller than 200 nM.
OUTPUT: no (0)

INPUT: I'd appreciate it if you could check whether N#Cc1cc(-c2ccnc(NC(=O)[C@@H]3C[C@H]3c3ccccc3)c2)ccc1OC1CCOCC1 has IC50 smaller than 200 nM.
OUTPUT: no (0)

INPUT: I'd appreciate it if you could check whether N#Cc1cc(-c2cc(NC(=O)C3CC3)ncn2)ccc1OC1CCN(C(=O)CO)CC1 has IC50 smaller than 200 nM.
OUTPUT: yes (1)

INPUT: I'd appreciate it if you could check whether N#Cc1cc(-c2ccnc(NC(=O)[C@@H]3C[C@H]3c3cnco3)c2)ccc1OC1CCOCC1 (relative stereo) has IC50 smaller than 200 nM.
OUTPUT: yes (1)

INPUT: I'd appreciate it if you could check whether N#Cc1cc(-c2ccnc(NC(=O)[C@H]3C[C@@H]3C3CC3)c2)ccc1OC1CCOCC1 (relative stereo) has IC50 smaller than 200 nM.
OUTPUT: no (0)

INPUT: I'd appreciate it if you could check whether COc1ccc([C@@H]2C[C@H]2C(=O)Nc2cc(-c3ccc(O[C@H]4CCN(C(=O)CO)CC4(F)F)c(C#N)c3)ncn2)cn1 has IC50 smaller than 200 nM.
OUTPUT: no (0)

INPUT: I'd appreciate it if you could check whether C[C@H]1CCCN1c1ccc(-c2ccnc(NC(=O)C3CC3)c2)cc1C#N has IC50 smaller than 200 nM.
OUTPUT: yes (1)

INPUT: I'd appreciate it if you could check whether CC(Oc1ccc(-c2cc(NC(=O)C3CC3)ncn2)cc1C#N)C(F)(F)F (stereo not shown) has IC50 smaller than 200 nM.
OUTPUT: no (0)

INPUT: I'd appreciate it if you could check whether N#Cc1cc(-c2ccnc(NC(=O)C3CC34CCOC4)c2)ccc1OC1CCOCC1 (stereo not shown) has IC50 smaller than 200 nM.
OUTPUT: no (0)

INPUT: I'd appreciate it if you could check whether N#Cc1cc(-c2ccnc(NC(=O)C3CC3)c2)ccc1N1CCCC1 has IC50 smaller than 200 nM.
OUTPUT: yes (1)

INPUT: I'd appreciate it if you could check whether N#Cc1cc(-c2cc(NC(=O)C3CC3)ncn2)ccc1O has IC50 smaller than 200 nM.
OUTPUT: no (0)

INPUT: I'd appreciate it if you could check whether N#Cc1cc(-c2ccnc(NC(=O)C3(C#N)CC3)c2)ccc1O[C@H]1CCN(C(=O)CO)C[C@H]1F has IC50 smaller than 200 nM.
OUTPUT: no (0)

INPUT: I'd appreciate it if you could check whether N#Cc1cc(-c2ccnc(NC(=O)C3CC3)c2)ccc1N1CCC[C@H]1C(=O)O has IC50 smaller than 200 nM.
OUTPUT: no (0)
